Every entry's value here was drawn from patent US20040024024A1.

Listing: Ki of selected compounds
# measurement target: Human recombinant MMP-13 (Homo sapiens, UniProt P45452)
# Construct: made in house; host or cells: baculovirus / insect cells
# experiment notes: In vitro MMP inhibition, Ki determination (fluorogenic substrate II)
# Type: biochemical
# assay setup: value in parentheses
# Procedure: Several hydroxamates and salts thereof were analyzed in in vitro assays to determine their ability to inhibit the MMP cleavage of peptide substrates. Inhibition (Ki) and IC50 constants were calculated from the assayed hydroxamate-MMP interactions. […] The assays from which the Ki determinations were made were performed as follows. […] In the absence of MMP inhibitory activity, substrate II was cleaved at the Gly-Leu bond resulting in an increase of relative fluorescence. […]

- smi: "COCCN1CCC(C(=O)NO)(S(=O)(=O)c2ccc(OCCCc3cccc(-c4ccc(C#N)cc4)c3)cc2)CC1"
  value unit: "nM"
  Ki: 0.28
- smi: "COCCN1CCC(C(=O)NO)(S(=O)(=O)c2ccc(OCCc3cccc(-c4ccccn4)c3)cc2)CC1"
  value unit: "nM"
  Ki: 0.38
- smi: "CCCCc1ccc(COc2ccc(S(=O)(=O)C3(C(=O)NO)CCOCC3)cc2)cn1"
  value unit: "nM"
  Ki: 0.62
- smi: "O=C(NCCOc1ccc(S(=O)(=O)C2(C(=O)NO)CCOCC2)cc1)c1cc2ccccc2[nH]1"
  value unit: "nM"
  Ki: 0.24
- smi: "CCCc1ccc(COc2ccc(S(=O)(=O)C3(C(=O)NO)CCOCC3)cc2)cn1"
  value unit: "nM"
  Ki: 0.52
- smi: "O=C(NO)C1(S(=O)(=O)c2ccc(OCCCc3cccc(-c4ccc(O)cc4)c3)cc2)CCOCC1"
  value unit: "nM"
  Ki: 20.2
- smi: "COCCN1CCC(C(=O)NO)(S(=O)(=O)c2ccc(OCCc3cccc(-c4ccc(F)cc4F)c3)cc2)CC1"
  value unit: "nM"
  Ki: 1.06
- smi: "O=C(NO)C1(S(=O)(=O)c2ccc(OCCCc3cc(-c4ccc(OC(F)(F)F)cc4)cs3)cc2)CCOCC1"
  value unit: "nM"
  Ki: 9.34
- smi: "O=C(NO)C1(S(=O)(=O)c2ccc(OCCCc3cccc(-c4ccc(C(F)(F)F)cc4)c3)cc2)CCOCC1"
  value unit: "nM"
  Ki: 43.6
- smi: "O=C(NO)C1(S(=O)(=O)c2ccc(OCCCc3cccc(-c4ccc5c(c4)OCCO5)c3)cc2)CCOCC1"
  value unit: "nM"
  Ki: 40.9
- smi: "COCCN1CCC(C(=O)NO)(S(=O)(=O)c2ccc(OCCCc3cncc(-c4ccccc4)c3)cc2)CC1"
  value unit: "nM"
  Ki: 0.141
- smi: "O=C(NCCSc1ccc(S(=O)(=O)C2(C(=O)NO)CCN(C3CC3)CC2)cc1)c1nc2ccccc2s1"
  value unit: "nM"
  Ki: 0.24
- smi: "COCCN1CCC(C(=O)NO)(S(=O)(=O)c2ccc(OCCc3cccc(-c4cccnc4)c3)cc2)CC1"
  value unit: "nM"
  Ki: 0.21
- smi: "COCCN1CCC(C(=O)NO)(S(=O)(=O)c2ccc(OCCCc3cccc(-c4cccs4)c3)cc2)CC1"
  value unit: "nM"
  Ki: 0.25
- smi: "O=C(NCCSc1ccc(S(=O)(=O)C2(C(=O)NO)CCOCC2)cc1)c1nc2ccccc2s1"
  value unit: "nM"
  Ki: 0.27
- smi: "O=C(NCCOc1ccc(S(=O)(=O)C2(C(=O)NO)CCOCC2)cc1)c1c[nH]c2ccccc12"
  value unit: "nM"
  Ki: 2.97
- smi: "O=C(NO)C1(S(=O)(=O)c2ccc(OCCCc3cccc(-c4cccs4)c3)cc2)CCOCC1"
  value unit: "nM"
  Ki: 7.25

* * *

# measurement target: Human recombinant MMP-2 (Homo sapiens)
# Construct: made in house; host or cells: MMP-2-transfected p2AHT2 cells
# Sequence (P08253 110-660): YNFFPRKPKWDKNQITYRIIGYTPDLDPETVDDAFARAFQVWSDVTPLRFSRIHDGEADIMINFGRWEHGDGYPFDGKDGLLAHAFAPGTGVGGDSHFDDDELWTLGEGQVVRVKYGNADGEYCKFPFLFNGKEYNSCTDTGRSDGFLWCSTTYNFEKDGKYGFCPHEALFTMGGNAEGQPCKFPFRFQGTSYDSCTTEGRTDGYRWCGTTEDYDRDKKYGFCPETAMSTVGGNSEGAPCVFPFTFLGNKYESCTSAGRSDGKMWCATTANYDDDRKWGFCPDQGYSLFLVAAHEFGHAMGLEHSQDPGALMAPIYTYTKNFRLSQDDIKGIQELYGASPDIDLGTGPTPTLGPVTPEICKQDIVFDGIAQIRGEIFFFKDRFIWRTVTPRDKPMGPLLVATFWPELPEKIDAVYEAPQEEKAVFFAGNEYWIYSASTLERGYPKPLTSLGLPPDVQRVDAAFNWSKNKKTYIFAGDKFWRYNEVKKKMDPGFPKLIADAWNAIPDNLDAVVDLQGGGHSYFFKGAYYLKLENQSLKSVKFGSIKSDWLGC
# experiment notes: In vitro MMP inhibition, IC50 determination (fluorogenic substrate I)
# Format: biochemical
# assay setup: value outside parenthesis
Each record gets a class by IC50: low bracket = under 30 nM, middle bracket = from 30 nM up to 300 nM, high bracket = 300 nM and over

- molecule: "C[C@@H]1C(=O)N(CCCOc2ccc(S(=O)(=O)C3(C(=O)NO)CCOCC3)cc2)C(=O)N1c1ccc(OC(F)(F)F)cc1 [Example 136]"
  label class: "middle bracket"
- molecule: "Cc1ccc(-c2cccc(CCOc3ccc(S(=O)(=O)C4(C(=O)NO)CCOCC4)cc3)c2)cc1 [Example 127]"
  label class: "high bracket"
- molecule: "CCN1CCC(C(=O)NO)(S(=O)(=O)c2ccc(OCCCc3cccc(-c4ccc(F)cc4)c3)cc2)CC1 [Example 138]"
  label class: "middle bracket"
- molecule: "COc1ccc(/C(C#N)=C/CCOc2ccc(S(=O)(=O)C3(C(=O)NO)CCOCC3)cc2)cc1 [Example 236]"
  label class: "low bracket"
- molecule: "COCCN1CCC(C(=O)NO)(S(=O)(=O)c2ccc(OCCCc3cccc(-c4ccc(F)cc4)c3)cc2)CC1 [Example 140]"
  label class: "middle bracket"
- molecule: "O=C(NO)C1(S(=O)(=O)c2ccc(OCCc3cccc(-c4ccccc4F)c3)cc2)CCOCC1 [Example 115]"
  label class: "high bracket"
- molecule: "COCCN1CCC(C(=O)NO)(S(=O)(=O)c2ccc(OCCCc3nnc(-c4ccccc4C(F)(F)F)o3)cc2)CC1 [Example 178]"
  label class: "low bracket"
- molecule: "O=C(NO)C1(S(=O)(=O)c2ccc(OCCc3cccc(-c4ccc(F)c(F)c4)c3)cc2)CCOCC1 [Example 122]"
  label class: "high bracket"
- molecule: "COCCN1CCC(C(=O)NO)(S(=O)(=O)c2ccc(OCCCn3nnc(-c4cc(F)ccc4C)n3)cc2)CC1 [Example 141]"
  label class: "middle bracket"

* * *

# measurement target: Human recombinant MMP-1 (Homo sapiens)
# Construct: made in house; host or cells: MMP-1-transfected HT-1080 cells (spent media)
# Sequence (P03956 100-469): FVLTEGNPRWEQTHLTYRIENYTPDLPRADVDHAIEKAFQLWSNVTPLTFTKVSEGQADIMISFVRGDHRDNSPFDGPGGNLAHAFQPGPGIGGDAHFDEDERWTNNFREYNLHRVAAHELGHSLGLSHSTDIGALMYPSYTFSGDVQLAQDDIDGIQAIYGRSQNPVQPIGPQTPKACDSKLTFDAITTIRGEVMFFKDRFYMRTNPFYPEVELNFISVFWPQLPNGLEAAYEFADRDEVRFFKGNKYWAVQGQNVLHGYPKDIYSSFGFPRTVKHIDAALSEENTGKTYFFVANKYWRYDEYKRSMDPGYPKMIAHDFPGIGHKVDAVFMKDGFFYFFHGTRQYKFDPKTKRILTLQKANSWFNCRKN
# experiment notes: In vitro MMP inhibition, Ki determination (fluorogenic substrate II)
# Assay type: biochemical
# assay setup: value in parentheses

- smi: "O=C(NO)C1(S(=O)(=O)c2ccc(OCCCc3cccc(-n4ccnc4)c3)cc2)CCOCC1"
  value qualifier: ">"
  Ki, nM: 10000
- smi: "O=C(NCCOc1ccc(S(=O)(=O)C2(C(=O)NO)CCOCC2)cc1)c1c[nH]c2ccccc12"
  value qualifier: "="
  Ki, nM: 2740
- smi: "CCCCC(=O)CCCOc1ccc(S(=O)(=O)C2(C(=O)NO)CCOCC2)cc1"
  value qualifier: "="
  Ki, nM: 1470

* * *

Listing: IC50 of selected compounds
# measurement target: Human recombinant MMP-14 (Homo sapiens, UniProt P50281)
# Construct: The catalytic domain enzyme was expressed in E. coli inclusion bodies, solubilized in urea; made in house
# experiment notes: In vitro MMP inhibition, IC50 determination (fluorogenic substrate I)
# Assay type: biochemical
# assay setup: value outside parentheses (Ki in parenthesis)
# Procedure: Several hydroxamates and salts thereof were analyzed in in vitro assays to determine their ability to inhibit the MMP cleavage of peptide substrates. Inhibition (Ki) and IC50 constants were calculated from the assayed hydroxamate-MMP interactions. […] The assays from which the IC50 determinations were made were performed as follows. […] The assayed hydroxamate samples were, incubated in Microfluorrm White Plates (Dynatech, Chantilly, VA) and analyzed on a Perkin Elmer L550 plate reader (Norwalk, Conn.). […]

- compound: "O=C(NO)C1(S(=O)(=O)c2ccc(OCCCOc3ccc4ccccc4c3)cc2)CCOCC1 [Example 448]"
  IC50: "0.832 µM"
- compound: "C[C@H]1[C@@H](c2ccccc2)OC(=O)N1CCCOc1ccc(S(=O)(=O)C2(C(=O)NO)CCOCC2)cc1 [Example 309]"
  IC50: "> 10 µM"
- compound: "O=C(CCCOc1ccc(S(=O)(=O)C2(C(=O)NO)CCOCC2)cc1)c1cccc(-c2ccccc2)c1 [Example 353]"
  IC50: "> 10 µM"
- compound: "O=C(CCCCOc1ccc(S(=O)(=O)C2(C(=O)NO)CCOCC2)cc1)c1cccc2ccccc12 [Example 342]"
  IC50: "> 10 µM"
- compound: "O=C(NO)C1(S(=O)(=O)c2ccc(OCCCS(=O)(=O)N3CCc4ccccc4C3)cc2)CCOCC1 [Example 332]"
  IC50: "> 10 µM"
- compound: "O=C(NO)C1(S(=O)(=O)c2ccc(OCCCOc3ccc(F)cc3F)cc2)CCOCC1 [Example 445]"
  IC50: "0.546 µM"
- compound: "CCCC(CCOc1ccc(S(=O)(=O)C2(C(=O)NO)CCOCC2)cc1)S(C)(=O)=O (stereo not shown) [Example 476]"
  IC50: "> 10 µM"
